target.system: T1, wildtype feline IL-31 protein (Feline_IL31_wildtype) (feline)
T1 construct: Full length feline IL-31 with C-terminal His tag, secreted from ExpiCHO cells; also called fIL-31
T1 chain: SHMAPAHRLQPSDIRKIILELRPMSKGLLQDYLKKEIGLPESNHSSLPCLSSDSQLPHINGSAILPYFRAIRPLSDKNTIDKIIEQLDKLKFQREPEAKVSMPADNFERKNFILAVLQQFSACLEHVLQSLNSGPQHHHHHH
protocol.description: SPR (Biacore), IL-31 on chip, 1:1 fit
property.measured: kon (M⁻¹ s⁻¹)
Enter your answer as a number in M⁻¹ s⁻¹; do not include the unit.

Lab note: Feline 15H05 1.1 L46V (antibody, V domains shown) VH: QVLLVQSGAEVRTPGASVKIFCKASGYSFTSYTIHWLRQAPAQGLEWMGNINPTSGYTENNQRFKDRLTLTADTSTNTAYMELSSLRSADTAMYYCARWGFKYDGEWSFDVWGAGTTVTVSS VL: EIQMTQSPSSLSASPGDRVTITCRASQGISIWLSWYQQKPGKVPKVLIYKASNLHIGVPSRFSGSGSGTDFTLTISSLEPEDAATYYCLQSQTYPLTFGGGTKLEIK gave kon of 35500

Lab note: Feline 15H05 3.3 (antibody, V domains shown, Feline heavy and kappa constant regions) VH: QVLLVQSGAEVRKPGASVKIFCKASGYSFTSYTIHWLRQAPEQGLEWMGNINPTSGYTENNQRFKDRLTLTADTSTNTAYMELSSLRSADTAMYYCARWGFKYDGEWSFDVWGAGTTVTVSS VL: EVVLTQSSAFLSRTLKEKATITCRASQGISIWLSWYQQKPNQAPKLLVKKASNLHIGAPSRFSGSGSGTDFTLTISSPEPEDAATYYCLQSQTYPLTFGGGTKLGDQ gave kon of 76300
